- Assay Target: SARS-CoV-2 3CLpro (Severe acute respiratory syndrome coronavirus 2)
- Assay Conditions: SARS-CoV pIC50 multiplied by similarity index (SI), training set compounds
Non-standard residues stand in square brackets, D forms with d. Residues, ends and D or L forms follow the SMILES beside them. ξ: configuration not given here. *: point of attachment. ξF = NC(Cc1ccccc1)C(=O)O; Cbz = O=C(OCc1ccccc1)*; CF3 = FC(F)(F)*
Label yes when SI*pIC50 >= 5; otherwise no.

Recorded results for 5 compounds are shown here.
O=C1Nc2ccc(S(=O)(=O)N3CCCCC3)cc2C1=O | yes
Cc1coc2c1C(=O)C(=O)c1c-2ccc2c1CCCC2(C)C | yes
CC(C)C[C@H](NC(=O)[C@@H](NC(=O)[C@H](C)NC(=O)OCc1ccccc1)C(C)C)C(=O)NC(Cc1ccccc1)C(=O)C(F)(F)F (some centres unmarked) [CMP174] (Cbz-AVL[ξF]-CF3) | yes
Nc1nc(CSc2nnc(-c3cccc4ccccc34)n2-c2ccccc2)cs1 | no
O=C(CSc1ncnc2c1sc1nc(N3CCOCC3)c3c(c12)CCCC3)NCc1ccco1 | no

We next turn to a different compound, shown below.
Exam item: decide whether the reported SI*pIC50 for Clc1ccc(C2C(n3ccnc3)C(c3ccc(Br)cc3)=NN2c2ccc(Cl)c(Cl)c2)cc1 (centres unmarked) is at least 5.
yes

* * *

- Assay Target: SARS-CoV-2 3CLpro (Severe acute respiratory syndrome coronavirus 2)
- Assay Conditions: SARS-CoV pIC50 multiplied by similarity index (SI), training set compounds
Reported Metric: SI*pIC50
Could you respond with only the numeric value?

The examples below pair each entry with its known result.
O=C(Oc1cncc(Cl)c1)c1cscn1 | 6.72
O=C1C(=O)N(c2cccc3ccccc23)c2ccc(I)cc21 | 6.11
CC(C)C[C@H](NC(=O)[C@@H](NC(=O)OCc1ccccc1)C(C)C)C(=O)N[C@@H](C[C@@H]1CCNC1=O)C(=O)c1nccs1 | 5.174
CCOC(=O)/C=C/[C@H](C[C@@H]1CCNC1=O)NC(=O)[C@H](CC=C(C)C)CC(=O)[C@@H](NC(=O)c1cc(C)on1)C(C)C | 4.307
COC(=O)[C@]1(C)CCC[C@]2(C)c3ccc(C(C)C)cc3CC[C@@H]12 | 3.836

For the molecule shown here, O=[N+]([O-])c1ccc(S(=O)(=O)c2ccc(Cl)cc2)[n+]([O-])c1 , give the reported SI*pIC50.
4.976

For the molecule shown here, O=c1cc(-c2ccc(O)c(-c3c(O)cc(O)c4c(=O)cc(-c5ccc(O)cc5)oc34)c2)oc2cc(O)cc(O)c12 , give the reported SI*pIC50.
5.233

For the molecule shown here, O=C1C(=O)N(Cc2ccc(C(=O)N3CCCCC3)s2)c2ccc(I)cc21 , give the reported SI*pIC50.
4.909

* * *

- Assay Target: SARS-CoV-2 3CLpro (Severe acute respiratory syndrome coronavirus 2, UniProt P0DTD1)
- Assay Conditions: SARS-CoV pIC50 multiplied by similarity index (SI), training set compounds
Each item that follows carries a reported SI*pIC50.
Could you respond with only the numeric value?

For the compound shown here, Cc1coc2c1C(=O)C(=O)c1c-2ccc2c1CCCC2(C)CO (stereo not drawn) , give the reported SI*pIC50.
5.122

* * *

- Assay Target: UniProtKB P0DTD1
- Assay Conditions: SARS-CoV pIC50 multiplied by similarity index (SI), training set compounds
Each item that follows carries a reported SI*pIC50.

The examples below pair each entry with its known result.
CN1C(=O)C(=O)c2cc(S(=O)(=O)N3CCOCC3)ccc21 [CMP149] | 5.156
O=C1C(=O)N(Cc2ccccc2)c2ccc(S(=O)(=O)N3CCCCC3)cc21 [CMP176] | 5.006

Please provide the recorded SI*pIC50 for CC(=O)n1nc(SSc2ccccc2[N+](=O)[O-])nc1C [CMP120] , tested on UniProtKB P0DTD1.
5.656

Please provide the recorded SI*pIC50 for O=c1cc(-c2ccc(O)c(O)c2)oc2cc(O)cc(O)c12 [CMP153] , tested on UniProtKB P0DTD1.
4.851

Please provide the recorded SI*pIC50 for Cc1oc(C(C)(C)C)cc1-c1cc(NS(=O)(=O)c2cccs2)[nH]n1 [CMP136] , tested on UniProtKB P0DTD1.
5.152

Source listed as paper PMC8611036.
